For each of the binders below, state its huIL-17 Bioassay (IC50, nM).
- measurement_target: Recombinant human IL-17A (rhIL-17A), R&D Systems Cat.No.317-ILB (human, UniProt Q16552 20-155, limits assumed)
- Sequence (Q16552 20-155 limits assumed): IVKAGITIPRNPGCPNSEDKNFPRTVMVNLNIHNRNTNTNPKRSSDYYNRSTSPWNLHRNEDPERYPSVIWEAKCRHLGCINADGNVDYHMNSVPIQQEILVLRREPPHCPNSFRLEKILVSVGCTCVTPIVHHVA
- test: cell-based or functional assay
Returns: string containing the number followed by the unit.

Data request: Quick one: huIL-17 Bioassay (IC50, nM) for Hu049-17 (antibody, V domains shown, Humanized mAb049) VH: EVQLVQSGAEVKKPGASVKVSCKASGYTFTDYEVHWVRQAPGQGLEWMGVIDPGTGGVAYNQKFEGRVTMTTDTSTSTAYMELRSLRSDDTAVYYCTRYSLFYGSSPYAMDYWGQGTLVTVSS VL: EIVLTQSPDFQSVTPKEKVTITCSASSSVNYMHWFQQKPDQSPKLWIYRTSNLASGVPSRFSGSGSGTDYTLTINSLEAEDAATYYCQQRSSYPWTFGQGTKLEIKR ?
Data returned: 0.061 nM

Data request: Quick one: huIL-17 Bioassay (IC50, nM) for Hu049-18 (antibody, V domains shown, Humanized mAb049) VH: EVQLVQSGAEVKKPGASVKVSCKASGYTFTDYEVHWVRQAPGQGLEWMGVIDPGTGGVAYNQKFEGRVTMTADTSTSTAYMELRSLRSDDTAVYYCTRYSLFYGSSPYAMDYWGQGTLVTVSS VL: EIVLTQSPDFQSVTPKEKVTITCSASSSVNYMHWFQQKPDQSPKLWIYRTSNLASGVPSRFSGSGSGTDYTLTINSLEAEDAATYYCQQRSSYPWTFGQGTKLEIKR ?
Data returned: 0.04 nM

Data request: Quick one: huIL-17 Bioassay (IC50, nM) for Hu049-19 (antibody, V domains shown, Humanized mAb049) VH: EVQLVQSGAEVKKPGASVKVSCKASGYTFTDYEVHWVRQAPGQGLEWIGVIDPGTGGVAYNQKFEGRVTMTADTSTSTAYMELRSLRSDDTAVYYCTRYSLFYGSSPYAMDYWGQGTLVTVSS VL: EIVLTQSPDFQSVTPKEKVTITCSASSSVNYMHWFQQKPDQSPKLWIYRTSNLASGVPSRFSGSGSGTDYTLTINSLEAEDAATYYCQQRSSYPWTFGQGTKLEIKR ?
Data returned: 0.066 nM

Data request: Quick one: huIL-17 Bioassay (IC50, nM) for Hu049-20 (antibody, V domains shown) VH: EVQLVQSGAEVKKPGASVKVSCKASGYTFTDYEVHWVRQAPGQGLEWIGVIDPGTGGVAYNQKFEGRATLTADDSTNTAYMELRSLRSDDTAVYYCTRYSLFYGSSPYAMDYWGQGTLVTVSS VL: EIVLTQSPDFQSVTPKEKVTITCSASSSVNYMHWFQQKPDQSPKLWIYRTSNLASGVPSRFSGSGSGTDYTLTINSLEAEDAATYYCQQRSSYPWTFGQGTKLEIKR ?
Data returned: 0.065 nM

Entry source: patent US20160289321A1
